target: CK2A2 (Homo sapiens)
Construct: purchased Eurofins
Sequence (P19784 whole entry): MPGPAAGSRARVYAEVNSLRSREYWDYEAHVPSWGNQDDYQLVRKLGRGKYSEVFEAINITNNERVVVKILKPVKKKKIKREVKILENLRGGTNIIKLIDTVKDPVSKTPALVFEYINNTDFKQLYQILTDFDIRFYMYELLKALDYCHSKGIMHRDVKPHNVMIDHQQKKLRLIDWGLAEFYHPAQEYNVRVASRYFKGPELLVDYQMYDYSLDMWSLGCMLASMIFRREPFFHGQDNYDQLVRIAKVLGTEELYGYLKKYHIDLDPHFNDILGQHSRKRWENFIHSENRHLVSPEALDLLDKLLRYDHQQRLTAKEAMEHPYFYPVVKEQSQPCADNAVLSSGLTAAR
protocolDetails: Radiometric kinase assay (Eurofins), CK2A2
Type: biochemical
conditions: Table 2; read-out: CK2A2 RAD IC50
Measured IC50 by item
Please respond with the number in nM and leave the unit unwritten.

*Q* Can you look up the measured IC50 of COc1nc(-c2cc(=O)c3cc(Cl)cc(Br)c3o2)ccc1O [JKT.669A] for me?
*A* 5

*Q* Can you look up the measured IC50 of COc1cc(-c2cc(=O)c3cc(Br)c(OC)c(Br)c3o2)ccc1O [JKT.706A] for me?
*A* 49

*Q* Can you look up the measured IC50 of COc1nc(-c2cc(=O)c3cc(Br)cc(Br)c3o2)ccc1O [JKT.606A] for me?
*A* 4

*Q* Can you look up the measured IC50 of COc1nc(-c2cc(=O)c3cc(Cl)cc(Cl)c3o2)ccc1O [JKT.678A] for me?
*A* 8

*Q* Can you look up the measured IC50 of COc1nc(-c2cc(=O)c3cccc(Br)c3o2)ccc1O [JKT.666A] for me?
*A* 8
